- Tested on: Danio rerio Tg(wt1b:EGFP) embryo, pronephros
- experimental details: pronephric angle neck segment to proximal convoluted tubule (mean of left and right), fold change vs DMSO control; higher = larger pronephric angle
- settings: 25 µM; exposure: 24-48 hpf
Where a name gives a salt, the structure may show the parent alone.
Tick Yes if pronephric angle neck segment is 1 or greater. Tick No if pronephric angle neck segment is less than 1.

*Q* Would you say CC(C)[C@H](N)C(=O)OCCOCn1cnc2c(=O)nc(N)[nH]c21 [Valacyclovir hydrochloride] shows pronephric angle neck segment at minimum 1?
*A* No

*Q* Would you say CC1=C(/C=C/C(C)=C/C=C/C(C)=C\C(=O)O)C(C)(C)CCC1 [Isotretinoin] shows pronephric angle neck segment at minimum 1?
*A* Yes

====

- Test system: Danio rerio Tg(wt1b:EGFP) embryo, pronephros
- experimental details: glomerular separation, fold change vs DMSO control; higher = glomeruli further apart (abnormal)
- settings: 25 µM; exposure: 24-48 hpf
Counter-ions that a name gives are not always drawn.
Tick Met if glomerular separation is 1 or greater. Tick Not met if glomerular separation is less than 1.

Known results for compounds:
{"columns": ["compound", "answer label"],
 "data": [
  ["CCCCNc1ccc(C(=O)OCCOCCOCCOCCOCCOCCOCCOCCOCCOC)cc1 [Benzonatate]", "Met"],
  ["Clc1ccc(COC(Cn2ccnc2)c2ccc(Cl)cc2Cl)c(Cl)c1 (centres undefined)", "Met"],
  ["CC1(C)NC(=O)N(c2ccc([N+](=O)[O-])c(C(F)(F)F)c2)C1=O [Nilutamide]", "Met"]
]}

*Q* Would you say CC(NCCc1ccc(O)cc1)C(O)c1ccc(O)cc1 (centres undefined) [Ritodrine hydrochloride] shows glomerular separation at minimum 1?
*A* Met

*Q* Would you say CCCCN1CCCCC1C(=O)Nc1c(C)cccc1C (centres undefined) [Bupivacaine hydrochloride] shows glomerular separation at minimum 1?
*A* Met

*Q* Would you say `O=c1[nH]c(=O)n([C@H]2C[C@H](O)[C@@H](CO)O2)cc1I` shows glomerular separation at minimum 1?
*A* Met

*Q* Would you say c1ccc([C@H]2CN3CCSC3=N2)cc1 [Levamisole hydrochloride] shows glomerular separation at minimum 1?
*A* Not met

*Q* Would you say Cc1cc(/C=C/c2ccc3cc(N(C)C)ccc3[n+]2C)c(C)n1-c1ccccc1 [Pyrvinium pamoate] shows glomerular separation at minimum 1?
*A* Met

*Q* Would you say Cc1ncc([N+](=O)[O-])n1CC(C)O (centres undefined) shows glomerular separation at minimum 1?
*A* Not met

====

- Tested on: Danio rerio Tg(wt1b:EGFP) embryo, pronephros
- experimental details: pronephric angle neck segment to proximal convoluted tubule (mean of left and right), fold change vs DMSO control; higher = larger pronephric angle
- settings: 25 µM; exposure: 24-48 hpf
Where a name gives a salt, the structure may show the parent alone.
The following molecules are shown together with reported pronephric angle neck segment values.
Reply with the value as a number alone.

{"columns": ["molecule", "system under test", "pronephric angle neck segment"],
 "data": [
  ["CN(C)CCn1nnnc1SCC1=C(C(=O)O)N2C(=O)[C@@H](NC(=O)Cc3csc(N)n3)[C@H]2SC1 [Cefotiam hydrochloride]", "Danio rerio Tg(wt1b:EGFP) embryo, pronephros", 1.08],
  ["C[C@]12C=CC(=O)C=C1CC[C@@H]1[C@@H]2C(=O)C[C@@]2(C)[C@H]1CC[C@]2(O)C(=O)CO", "Danio rerio Tg(wt1b:EGFP) embryo, pronephros", 1.08],
  ["Cc1ncc(C[n+]2csc(CCO)c2C)c(N)n1 [Thiamine hydrochloride]", "Danio rerio Tg(wt1b:EGFP) embryo, pronephros", 0.994],
  ["COc1cc(N)c(Cl)cc1C(=O)NC1CCN(Cc2ccccc2)CC1 [Clebopride maleate]", "Danio rerio Tg(wt1b:EGFP) embryo, pronephros", 0.912],
  ["CC[N+](C)(C)Cc1ccccc1Br [Bretylium tosylate]", "Danio rerio Tg(wt1b:EGFP) embryo, pronephros", 0.982],
  ["CO[C@@]1(NC(=O)Cc2cccs2)C(=O)N2C(C(=O)O)=C(COC(N)=O)CS[C@@H]21 [Cefoxitin sodium salt]", "Danio rerio Tg(wt1b:EGFP) embryo, pronephros", 0.968],
  ["COc1cc(OC)c(C(=O)CCCN2CCCC2)c(OC)c1 [Buflomedil hydrochloride]", "Danio rerio Tg(wt1b:EGFP) embryo, pronephros", 1.01],
  ["N=C(N)NS(=O)(=O)c1ccc(N)cc1", "Danio rerio Tg(wt1b:EGFP) embryo, pronephros", 1.02],
  ["CCCCOC(=O)c1ccc(N)cc1", "Danio rerio Tg(wt1b:EGFP) embryo, pronephros", 0.983],
  ["COc1ccc(-c2cc(=O)c3c(O)cc(O[C@@H]4O[C@H](CO[C@@H]5O[C@@H](C)[C@H](O)[C@@H](O)[C@H]5O)[C@@H](O)[C@H](O)[C@H]4O)cc3o2)cc1O", "Danio rerio Tg(wt1b:EGFP) embryo, pronephros", 0.974]
]}

*Q* What value of measured pronephric angle neck segment is listed for CN1C(C)(C)CCCC1(C)C [Pempidine tartrate] ?
*A* 1.02

*Q* What value of measured pronephric angle neck segment is listed for NS(=O)(=O)c1cc2c(cc1C(F)(F)F)NCNS2(=O)=O [Hydroflumethiazide] ?
*A* 1.04

*Q* What value of measured pronephric angle neck segment is listed for `CCOC(=O)C1=C(C)NC(C)=C(C(=O)OCC)C1c1ccccc1/C=C/C(=O)OC(C)(C)C` ?
*A* 1.11

*Q* What value of measured pronephric angle neck segment is listed for `CS(=O)(=O)c1ccc(C2=C(c3ccccc3)C(=O)OC2)cc1` ?
*A* 0.969

====

- Tested on: Danio rerio Tg(wt1b:EGFP) embryo, pronephros
- experimental details: pronephric angle neck segment to proximal convoluted tubule (mean of left and right), fold change vs DMSO control; higher = larger pronephric angle
- settings: 25 µM; exposure: 24-48 hpf
Counter-ions that a name gives are not always drawn.
The following molecules are shown together with reported pronephric angle neck segment values.
Reply with the value as a number alone.

{"columns": ["molecule", "pronephric angle neck segment"],
 "data": [
  ["C[C@]12C=CC(=O)C=C1CC[C@@H]1[C@@H]2[C@@H](O)C[C@@]2(C)[C@H]1CC[C@]2(O)C(=O)CO [Prednisolone]", 1.04],
  ["Cc1ccc(-c2ncc(Cl)cc2-c2ccc(S(C)(=O)=O)cc2)cn1 [Etoricoxib]", 1.04],
  ["O=C1c2ccccc2C(=O)C1c1ccccc1 [Phenindione]", 0.919],
  ["CC(C)(Sc1cc(C(C)(C)C)c(O)c(C(C)(C)C)c1)Sc1cc(C(C)(C)C)c(O)c(C(C)(C)C)c1 [Probucol]", 0.928],
  ["CCCCOc1ccc(OCCCN2CCOCC2)cc1 [Pramoxine hydrochloride]", 0.993]
]}

*Q* What value of measured pronephric angle neck segment is listed for COc1ccc2[nH]c([S+]([O-])Cc3ncc(C)c(OC)c3C)nc2c1 (stereo not given) [Omeprazole] ?
*A* 1.18

*Q* What value of measured pronephric angle neck segment is listed for CC(C)NCC(O)c1cc(O)cc(O)c1 (stereo not given) [Metaproterenol sulfate, orciprenaline sulfate] ?
*A* 1.08

*Q* What value of measured pronephric angle neck segment is listed for OCCOCCN1CCN(C(c2ccccc2)c2ccc(Cl)cc2)CC1 (stereo not given) [Hydroxyzine dihydrochloride] ?
*A* 0.964

*Q* What value of measured pronephric angle neck segment is listed for CO[C@H]1/C=C/O[C@@]2(C)Oc3c(C)c(O)c4c(O)c(c(/C=N/N5CCN(C6CCCC6)CC5)c(O)c4c3C2=O)NC(=O)/C(C)=C\C=C\[C@H](C)[C@H](O)[C@@H](C)[C@@H](O)[C@@H](C)[C@H](OC(C)=O)[C@@H]1C [Rifapentine] ?
*A* 1.1

*Q* What value of measured pronephric angle neck segment is listed for COc1ccc(CCN(C)CCCC(C#N)(c2ccc(OC)c(OC)c2)C(C)C)cc1OC (stereo not given) [Verapamil hydrochloride] ?
*A* 1.07

*Q* What value of measured pronephric angle neck segment is listed for CCCCC(=O)N(Cc1ccc(-c2ccccc2-c2nnn[nH]2)cc1)[C@H](C(=O)O)C(C)C [Valsartan] ?
*A* 0.991

*Q* What value of measured pronephric angle neck segment is listed for CC(=O)[C@H]1CC[C@H]2[C@@H]3C[C@H](C)C4=CC(=O)CC[C@]4(C)[C@H]3[C@@H](O)C[C@]12C [Medrysone] ?
*A* 0.957

*Q* What value of measured pronephric angle neck segment is listed for COCCOC(=O)C1=C(C)NC(C)=C(C(=O)OC/C=C/c2ccccc2)C1c1cccc([N+](=O)[O-])c1 (stereo not given) [Cilnidipine] ?
*A* 1.25

*Q* What value of measured pronephric angle neck segment is listed for CCCNC(C)(C)COC(=O)c1ccccc1 [Meprylcaine hydrochloride] ?
*A* 0.984

*Q* What value of measured pronephric angle neck segment is listed for CC1CNc2c(cccc2S(=O)(=O)N[C@@H](CCCNC(=N)N)C(=O)N2CC[C@@H](C)C[C@@H]2C(=O)O)C1 (stereo not given in full) [Argatroban] ?
*A* 0.997
